Field: inhibition. Provide a value for each of the molecules that follow.
ASSAYED_TARGET: FAD-linked sulfhydryl oxidase ALR (Homo sapiens) (UniProt P55789)
Sequence (P55789 whole entry, looked up): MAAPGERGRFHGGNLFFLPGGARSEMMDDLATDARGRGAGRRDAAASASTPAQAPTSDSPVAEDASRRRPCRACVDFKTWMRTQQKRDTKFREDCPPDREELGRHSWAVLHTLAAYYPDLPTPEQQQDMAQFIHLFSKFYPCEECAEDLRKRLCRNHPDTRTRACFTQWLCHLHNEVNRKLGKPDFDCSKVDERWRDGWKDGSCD
EXPERIMENT_SUMMARY: ALR-catalysed DTT oxidation blockers – biochemical, H2O2 detection, HRP-luminol luminescence, single point, primary screen (AID 485317)
COND: purified ALR, stronger effect = higher value, concentration not given here
Out of some 290,000 compounds screened, about 11,000 (3.8%) were called active. Only a selection was taken, and actives are over-represented in it overall.
Answers are plain numbers, in %.

Please review the following examples before continuing.
MOLECULE	READOUT_LABEL	U	RECORDED_VALUE
CCC(=O)c1ccc(OCC(=O)Nc2ccc(N3CCCCC3)cc2)cc1	inhibition	%	-9.1
C=CCn1c(CSc2nc3ccccc3s2)nnc1SCC(=O)NCc1ccco1	inhibition	%	60.8
CCN(CC)C(CNC(=O)CSc1nnnn1-c1cccc(F)c1)c1ccco1 (centres undefined)	inhibition	%	-5.32
Cc1ccc(Nc2c3c(nc4ccccc24)CCC3)cc1	inhibition	%	98.4

State recorded inhibition for all listed molecules.
1. Cc1ccc(S(=O)(=O)N2CCN(C(=O)COC(=O)CNC(=O)c3ccc(C(C)(C)C)cc3)CC2)c(C)c1
2. C/C(=N\NC(=O)c1cccc(N2CCCC2=O)c1)c1ccc(N)cc1
3. CC(C)(C)NS(=O)(=O)NC(=O)C1=C(N2CCCC2)COC1=O
4. CCN(c1ccccc1)S(=O)(=O)c1cccc(C(=O)NCc2ccccc2CN2CCOCC2)c1

# output
1: -8.74; 2: 99.1; 3: 2.74; 4: -5.99

For each of the items listed, what is its inhibition?
1. CCc1nnc(NS(=O)(=O)c2ccc(NS(=O)(=O)c3ccccc3)cc2)s1
2. O=C(O)c1ccc2c(c1)C(=O)N(c1ccc(/C=C/C(=O)c3ccccc3)cc1)C2=O
3. COc1ccc(C(=O)NNC(=S)NC(=O)c2ccccc2)cc1
4. O=C(NCCCN1CCOCC1)c1ccccc1NS(=O)(=O)c1ccc(Br)cc1
5. COC(=O)NNC1=CC(=O)CC(C)(C)C1

# output
35.6
50.4
34.7
-9.12
5.45

Give inhibition for each listed item.
1. O=C(CSc1n[nH]c(-c2cccnc2)n1)Nc1ccc(Cl)cc1
2. O=C(/C=C/c1ccccc1)c1ccoc1
3. O=C(NCCN1CCOCC1)c1cccc(S(=O)(=O)Nc2ccc(F)cc2)c1
4. COC(=O)c1ccc(COc2ccc(/C=C/C(=O)c3ccc(OC)c(CSCC(=O)O)c3)cc2OC)cc1

# output
5.84
13.2
-5.52
99.4

For each of the molecules below, note its inhibition.
1. COc1ccc(C(=O)NC(=S)NNC(=O)CCc2ccccc2)cc1
2. Cc1cc(OCCCCOc2ccc(C#N)cc2)ccc1[N+](=O)[O-]
3. CC(OC(=O)c1ccc(-n2cnnn2)cc1)C(=O)NCc1ccccc1 (centres undefined)
4. O=C(NC(=S)Nc1ccc(Br)cc1F)C1CCCCC1
5. O=C(NCCc1ccc(Cl)cc1)c1cccc(N2CCCC2=O)c1
6. CCn1c(NC(=O)c2ccccc2)c(-c2cccs2)c(=O)c2ccccc21

# output
1. 24.8
2. 3.02
3. 0.686
4. -2.71
5. 2.63
6. -3.02

Hi, could you look up inhibition for each item in my list?
1. CCCCOC(=O)CCCc1ccc([N+](=O)[O-])cc1[N+](=O)[O-]
2. CN(C)C(=O)CSc1n[nH]c(-c2ccco2)n1
3. Cc1cc(O)ccc1NC1=CC(=O)CC(C)(C)C1
4. Cc1cc2nnc(SCC(=O)N3CCN(c4ccccc4)CC3)n2c(N)n1
5. CCCCOc1ccc(CSC(=N)N)cc1[N+](=O)[O-]
6. CCOc1ccc2oc(C(=O)N(CC)CC(=O)Nc3ccc(NC(C)=O)cc3)c(C)c2c1

# output
1: -8.65; 2: -5.75; 3: 92.3; 4: 98; 5: 99.9; 6: -6.04

Provide inhibition values for the following items, in order.
1. CC1(c2ccccc2)NC(=O)N(CC(=O)Nc2cc(Cl)ccc2N2CCOCC2)C1=O (centres undefined)
2. CCCCCOc1ccc(CSC2=NCCN2)cc1[N+](=O)[O-]
3. COc1ccc(S(=O)(=O)N2CCN(CC(=O)N3CCOCC3)CC2)cc1OC

# output
13.2
98.8
-0.297

Record inhibition for all entries; do not skip any.
1. CC(=O)Nc1ccc(Nc2c3ccccc3nc3ccccc23)cc1
2. COc1ccc(C(=O)/C=C/c2ccc(-c3ccccc3)cc2)cc1CSCC(=O)O
3. Cc1nnc(SCC(=O)N2CCN(c3ccccc3)CC2)n1-c1ccccc1
4. CC(=O)Nc1ccc(-c2nc3ccccc3o2)cc1
5. COc1ccc(C(=O)NCC2CCCN2S(=O)(=O)c2cccs2)cc1OC (centres undefined)
6. COC(=O)c1ccc(C(NC(=O)OCc2ccccc2)/C(C)=C/[C@@H](C)C(=O)NCc2ccc(OC)c(OC)c2)cc1 (some centres undefined)

# output
1: 89.9; 2: 99.2; 3: 46.1; 4: -1.09; 5: -12.1; 6: -2.17

Answer for every listed entry: what is its inhibition? The entries follow.
1. COc1ccccc1CNS(=O)(=O)c1cc2c3c(c1)CCC(=O)N3CCC2
2. CCCCn1c(N)c(N(CC(C)C)C(=O)CSc2ccc([N+](=O)[O-])cc2)c(=O)[nH]c1=O
3. O=C(NCCCN1CCOCC1)c1ccccc1NS(=O)(=O)c1ccc(F)cc1

# output
-0.847
-3.66
-11.8
